- TARGET OF ASSAY: GIPC2, Q8TF65
- Sequence (Q8TF65 112-203): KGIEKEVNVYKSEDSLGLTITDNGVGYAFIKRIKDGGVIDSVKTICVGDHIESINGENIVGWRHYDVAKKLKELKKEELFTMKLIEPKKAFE
- ASSAY EXPLANATION: holdup assay
- Set-up: key: below the threshold = too weak to quantify, mostly under pKd 3.1 to 4
- TEST SETTINGS: plain residues with an end cap or a label only (N-terminal biotin on a linker: ahx)
MEASURED PARAMETER: pKd

binder="TQKFRASTAL [FRMPD1, Q5SYB0]" measured_parameter=pKd endpoint_value="below the threshold"
binder="QNTDDVQTSF [ACE2, Q9BYF1]" measured_parameter=pKd endpoint_value="below the threshold"
binder="TESNLQTSSC [CGN, Q9P2M7]" measured_parameter=pKd endpoint_value=3.78
binder="EKQAKGDTEF [CACYBP, Q9HB71]" measured_parameter=pKd endpoint_value="below the threshold"

Moving on to the next binder.
q: Consider the binder shown here: HTHSYIETHV [CNKSR2, Q8WXI2] What is its recorded pKd?
a: below the threshold
